- testTarget: recombinant human AChE (Homo sapiens, UniProt P22303)
- Sequence (P22303 32-614): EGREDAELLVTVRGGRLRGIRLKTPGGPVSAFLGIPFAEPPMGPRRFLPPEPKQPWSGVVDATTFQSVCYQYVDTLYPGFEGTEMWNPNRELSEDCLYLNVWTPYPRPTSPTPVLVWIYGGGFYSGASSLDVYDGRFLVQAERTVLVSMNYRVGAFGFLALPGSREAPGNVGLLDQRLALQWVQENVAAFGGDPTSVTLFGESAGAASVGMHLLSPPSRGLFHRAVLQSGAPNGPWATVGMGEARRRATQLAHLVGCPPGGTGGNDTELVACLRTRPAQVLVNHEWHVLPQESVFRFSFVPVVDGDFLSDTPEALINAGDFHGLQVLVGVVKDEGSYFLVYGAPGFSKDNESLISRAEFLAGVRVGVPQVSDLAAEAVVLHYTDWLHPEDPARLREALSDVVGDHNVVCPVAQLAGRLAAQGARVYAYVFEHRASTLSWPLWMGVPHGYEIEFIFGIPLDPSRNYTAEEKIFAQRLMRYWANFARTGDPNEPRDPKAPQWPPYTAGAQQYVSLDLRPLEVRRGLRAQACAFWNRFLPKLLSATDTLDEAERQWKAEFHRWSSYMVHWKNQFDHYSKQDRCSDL
- assayProcedure: biochemical
pIC50: −log10 of the molar value. Where a name gives a salt, the structure may show the parent alone.
parameterMeasured: pIC50

>  <molecule>
C=CC[N+]1([C@H]2C[C@H]3[C@@H]4CC[C@H]5C[C@H](OC(C)=O)[C@@H](N6CCCCC6)C[C@]5(C)[C@H]4CC[C@]3(C)[C@H]2OC(=O)CC)CCCCC1 [Rapacuronium bromide, reference compound]

>  <valueReported>
4.58

$$$$
>  <molecule>
CCOP(=S)(OCC)Oc1cnc2ccccc2n1 [Quinalphos]

>  <valueReported>
4.43

$$$$
>  <molecule>
CNC(=O)Oc1cc(C)cc(C(C)C)c1 [Promecarb]

>  <valueReported>
6.21

$$$$
>  <molecule>
CCOC(=O)c1ccc(NC(=O)CN2CCCCC2)cc1 [Sulcaine, reference compound]

>  <valueReported>
4.63

$$$$
>  <molecule>
CCOP(=O)(OCC)Oc1cc(C)nc(C(C)C)n1 [Diazoxon]

>  <valueReported>
5.65

$$$$
>  <molecule>
CNC(=O)Oc1ccccc1OC(C)C [Propoxur]

>  <valueReported>
5.72

$$$$
>  <molecule>
CCCCSP(=O)(SCCCC)SCCCC [Tribufos]

>  <valueReported>
4.60

$$$$
>  <molecule>
CCc1ccc(C(=O)C(C)CN2CCCCC2)cc1.Cl (centres unmarked) [Eperisone hydrochloride, reference compound]

>  <valueReported>
4.40

$$$$
>  <molecule>
Cc1nc2n(c(=O)c1CCN1CCC(C(=O)c3ccc(F)cc3)CC1)CCS2 [Setoperone, reference compound]

>  <valueReported>
4.70

$$$$
>  <molecule>
CNC(=O)O/N=C/C(C)(C)[S+](C)[O-] (centres unmarked) [Aldicarb sulfoxide]

>  <valueReported>
6.11

$$$$
>  <molecule>
CNC(=O)O/N=C(\SC)C(=O)N(C)C [Oxamyl]

>  <valueReported>
5.55

$$$$
>  <molecule>
CCOP(=O)(Sc1ccccc1)Sc1ccccc1 [Edifenphos]

>  <valueReported>
5.52

$$$$
>  <molecule>
CCOP(=S)(OCC)SCSP(=S)(OCC)OCC [Ethion]

>  <valueReported>
4.23

$$$$
>  <molecule>
CCOP(=S)(OCC)OP(=S)(OCC)OCC [Sulfotepp]

>  <valueReported>
4.35

$$$$
>  <molecule>
Cc1c(Cl)c(=O)oc2cc(OP(=O)(OCCCl)OCCCl)ccc12 [Haloxon]

>  <valueReported>
5.87

$$$$
>  <molecule>
CCCCN(CCCC)SN(C)C(=O)Oc1cccc2c1OC(C)(C)C2 [Carbosulfan]

>  <valueReported>
5.87

$$$$
>  <molecule>
CCOP(=S)(OCC)SCn1nnc2ccccc2c1=O [Azinphos-ethyl]

>  <valueReported>
4.65

$$$$
>  <molecule>
CCOC(=O)c1cn2nc(OP(=S)(OCC)OCC)cc2nc1C [Pyrazophos]

>  <valueReported>
4.07

$$$$
>  <molecule>
CN1CCCC(n2nc(Cc3ccc(Cl)cc3)c3ccccc3c2=O)CC1 (centres unmarked) [Azelastine (hydrochloride), reference compound]

>  <valueReported>
4.44

$$$$
>  <molecule>
CCOP(=S)(OCC)Oc1nc(Cl)c(Cl)cc1Cl [Chlorpyrifos, reference compound]

>  <valueReported>
4.02

$$$$
>  <molecule>
CCOC(=O)C(SP(=S)(OC)OC)c1ccccc1 (centres unmarked) [Phenthoate]

>  <valueReported>
4.42

$$$$
>  <molecule>
CNC(=O)Oc1ccc(N(C)C)c(C)c1 [Aminocarb]

>  <valueReported>
5.02

$$$$
>  <molecule>
CCOP(=S)(OCC)Oc1cc(-c2ccccc2)on1 [Isoxathion]

>  <valueReported>
4.07

$$$$
>  <molecule>
CN1C(=O)COc2c(C(=O)NC3CN4CCC3CC4)cc(Cl)cc21 (centres unmarked) [Azasetron hydrochloride, reference compound]

>  <valueReported>
5.05

$$$$
>  <molecule>
CCOP(=S)(Oc1cnc(C(C)(C)C)nc1)OC(C)C (centres unmarked) [Tebupirimfos]

>  <valueReported>
4.37

$$$$
>  <molecule>
O=C(O)/C=C/C(=O)O.O=C1c2ccccc2C(=O)N1CCc1noc(-c2ccc(CN3CCCCCC3)s2)n1 [PharmaGSID_48172]

>  <valueReported>
4.67

$$$$
>  <molecule>
CCOC(=O)CCN(SN(C)C(=O)Oc1cccc2c1OC(C)(C)C2)C(C)C [Benfuracarb]

>  <valueReported>
5.73

$$$$
>  <molecule>
CNC(=O)ON=C(C)SC [Methomyl]

>  <valueReported>
5.42

$$$$
>  <molecule>
CCN1CCC2(CC1)COc1cc3c(cc12)N(C(=O)c1ccc(-c2ccc(-c4nnc(C)o4)cc2C)cc1)CC3.Cl [SB236057A]

>  <valueReported>
4.17

$$$$
